Target: VAV1 (Homo sapiens, UniProt P15498+Q96SW2)
Construct: A heterozygous VAV1 C-terminal HiBiT knock-in pool was generated at Monte Rosa Therapeutics from a clonal Jurkat cell; endogenous in cells; host or cells: Jurkat clone stably expressing LgBiT, homozygous GSPT1-G575N; heterozygous VAV1-HiBiT knock-in pool
Assay: VAV1 degradation activity, VAV1-HiBiT knock-in Jurkat luminescence assay (Example A, Table 1)
Assay type: cell-based
Conditions: Jurkat, VAV1-HiBiT knock-in Jurkat cells, luminescence read at 6 and 24 hours; read-out: VAV1 Dmax %
Measured attribute: Dmax (%)

{"columns": ["Compound", "Unit symbol", "Meas value"],
 "data": [
  ["O=C1CCC(c2cccc(-c3ccc(N4C(=O)CCCC4C(F)F)cc3)c2Cl)C(=O)N1 (centres unmarked)", "%", 95.7],
  ["CC1(C)CCC(=O)N(Cc2ccc(-c3cccc(C4CCC(=O)NC4=O)c3Cl)cc2)C1 (centres unmarked)", "%", 98],
  ["C[C@@H]1COCC(=O)N1c1ccc(-c2cccc(C3CCC(=O)NC3=O)c2Cl)cc1 (some centres unmarked)", "%", 90.5],
  ["O=C1CCC(c2cccc(-c3ccc(N4CCC(F)(F)CC4=O)cc3)c2Cl)C(=O)N1 (centres unmarked)", "%", 94.8],
  ["O=C1CCC(c2cccc(-c3ccc(N4C(=O)CCC45CCC5)nc3)c2Cl)C(=O)N1 (centres unmarked)", "%", 88.7],
  ["O=C1CCC(c2cccc(-c3ccc(S(=O)(=O)N4CCCC4)cc3)c2Cl)C(=O)N1 (centres unmarked)", "%", 90.5],
  ["O=C1CCC(c2cccc(-c3ccc(Cc4cnccn4)cc3)c2Cl)C(=O)N1 (centres unmarked)", "%", 96],
  ["O=C1CCC(c2cccc(-c3ccc(-c4cccc5ocnc45)cc3)c2Cl)C(=O)N1 (centres unmarked)", "%", 89.9]
]}
